The values you see were collected from ChEMBL document CHEMBL5291721.

The compounds listed here are annotated with their AC50.
Biological target: Prostaglandin G/H synthase 1 (Homo sapiens, UniProt P23219); further: assay procedure not described here
Sequence (P23219 whole entry): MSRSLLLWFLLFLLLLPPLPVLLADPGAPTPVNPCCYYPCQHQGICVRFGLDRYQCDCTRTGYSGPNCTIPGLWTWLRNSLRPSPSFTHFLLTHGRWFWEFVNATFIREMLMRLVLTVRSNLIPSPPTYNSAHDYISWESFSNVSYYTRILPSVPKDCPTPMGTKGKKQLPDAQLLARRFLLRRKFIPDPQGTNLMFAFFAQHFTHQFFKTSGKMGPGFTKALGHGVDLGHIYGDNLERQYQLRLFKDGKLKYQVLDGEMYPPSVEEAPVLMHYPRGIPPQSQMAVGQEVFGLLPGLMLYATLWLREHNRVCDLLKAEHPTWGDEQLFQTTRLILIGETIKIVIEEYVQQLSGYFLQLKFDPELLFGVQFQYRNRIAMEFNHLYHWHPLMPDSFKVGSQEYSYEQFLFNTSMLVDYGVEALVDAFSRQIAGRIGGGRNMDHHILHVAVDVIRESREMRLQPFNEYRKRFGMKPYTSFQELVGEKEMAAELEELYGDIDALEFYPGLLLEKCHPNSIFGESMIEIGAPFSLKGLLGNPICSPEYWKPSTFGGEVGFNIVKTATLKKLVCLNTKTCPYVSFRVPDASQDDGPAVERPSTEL
Assay type: functional
Field format: number, assumed µM, no unit text.

Using known records, supply AC50 for CCCCC1C(=O)N(c2ccccc2)N(c2ccc(O)cc2)C1=O (configuration not stated) [OXYPHENBUTAZONE ANHYDROUS]
21.8

###

Molecular target: Alpha-1A adrenergic receptor (Homo sapiens, UniProt P35348); further: assay procedure not described here
Sequence (P35348 whole entry): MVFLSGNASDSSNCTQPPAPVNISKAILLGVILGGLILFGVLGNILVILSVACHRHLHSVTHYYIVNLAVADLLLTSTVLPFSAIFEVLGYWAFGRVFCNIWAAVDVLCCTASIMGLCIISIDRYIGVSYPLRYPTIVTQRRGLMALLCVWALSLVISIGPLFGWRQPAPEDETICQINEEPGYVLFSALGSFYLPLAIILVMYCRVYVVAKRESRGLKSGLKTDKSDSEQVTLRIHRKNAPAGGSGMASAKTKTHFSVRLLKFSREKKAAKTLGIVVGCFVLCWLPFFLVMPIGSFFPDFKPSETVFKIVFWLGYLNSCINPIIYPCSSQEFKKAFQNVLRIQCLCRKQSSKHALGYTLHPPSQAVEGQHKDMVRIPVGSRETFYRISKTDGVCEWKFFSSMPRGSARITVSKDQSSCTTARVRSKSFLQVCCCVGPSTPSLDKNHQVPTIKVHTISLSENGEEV
The following compounds are shown together with reported AC50 values.

Recorded AC50, per entry:
[[record]]
compound = "CC(CN1c2ccccc2Sc2ccccc21)N(C)C (stereo not given) [PROMETHAZINE]"
reported_value = "0.03 µM"

[[record]]
compound = "Nc1c(CC(=O)O)cccc1C(=O)c1ccc(Br)cc1 [BROMFENAC]"
reported_value = "> 30 µM"

[[record]]
compound = "O=C(/C=C/c1cccc(S(=O)(=O)Nc2ccccc2)c1)NO [BELINOSTAT]"
reported_value = "> 30 µM"

[[record]]
compound = "O=S1(=O)CCN(CN2CCS(=O)(=O)NC2)CN1 [TAUROLIDINE]"
reported_value = "> 30 µM"

[[record]]
compound = "C#C[C@]1(O)C=C[C@H]2[C@@H]3CCC4=CC(=O)CC[C@@H]4[C@H]3CC[C@@]21CC [GESTODENE]"
reported_value = "> 30 µM"


Find the measured AC50 of CN[C@@H]1[C@H](O[C@H]2[C@H](O[C@H]3[C@H](O)[C@@H](O)[C@H](NC(=N)N)[C@@H](O)[C@@H]3NC(=N)N)O[C@@H](C)[C@]2(O)CO)O[C@@H](CO)[C@H](O)[C@H]1O [DIHYDROSTREPTOMYCIN] and report it.
> 30 µM

Identify AC50 associated with the compound NC[C@H]1CC[C@H](C(=O)Oc2ccc(CCC(=O)O)cc2)CC1 [CETRAXATE]
> 30 µM

Kindly indicate its recorded AC50. Item: CC(C)C[C@H](NC(=O)[C@@H](O)[C@H](N)Cc1ccccc1)C(=O)O [UBENIMEX]
> 30 µM

Tell me measured AC50 for COc1ccc2c(C(=S)N(C)CC(=O)O)cccc2c1C(F)(F)F [TOLRESTAT] please.
> 30 µM

Retrieve AC50 measured for CC(C)NC(=N)NC(=N)Nc1ccc(Cl)c(Cl)c1 [CHLORPROGUANIL] and print it.
2.74 µM
